Target: T1, hKLRF1 (human, UniProt Q9NZS2 1-231)
T1 construct: Overexpressed on HEK293 cells
T1 sequence: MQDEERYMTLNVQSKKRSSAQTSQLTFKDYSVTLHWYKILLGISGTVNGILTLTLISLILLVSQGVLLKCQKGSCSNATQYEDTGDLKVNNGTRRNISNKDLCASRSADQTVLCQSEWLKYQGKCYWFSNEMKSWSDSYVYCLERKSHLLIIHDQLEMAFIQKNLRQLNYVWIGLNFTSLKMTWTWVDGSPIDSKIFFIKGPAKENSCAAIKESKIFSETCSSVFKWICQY
Test: flow cytometry, HEK293 transfectants, 100 nM antibody;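 also: antibody applied at a saturating level and incubated with cells for 30 min at room temperature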
readout.label: % of CD161 binding (%)
Number only, in %; omit the unit.

Some binders with recorded % of CD161 binding:
binder: Ab4 (antibody, human IgG1, V domains shown, IgG purified from yeast culture) VH: EVQLLESGGGLVQPGGSLRLSCAASGFTFERYAMSWVRQAPGKGLEWVSAISAVGGTTKYADSVKGRFTISRDNSKNTLYLQMNSLRAEDTAVYYCAKPLDSSLWADFDAWGRGTLVTVSS VL: DIQLTQSPSSVSASVGDRVTITCRASQGISSWLAWYQQKPGKAPKLLIYAASGLQSGVPSRFSGSGSGTDFTLTISSLQPEDFATYYCQQASYLPITFGGGTKVEIK
endpoint.unit: %
% of CD161 binding: 0.095
//
binder: Ab14 (antibody, human IgG1, V domains shown, IgG purified from yeast culture) VH: QVQLVESGGGLVKPGGSLRLSCAASGFTFGQYYMSWIRQAPGKGLEWVSYISPSGATIAYADSVKGRFTISRDNAKNSLYLQMNSLRAEDTAVYYCARSLMSTGTHLYFDLWGRGTLVTVSS VL: DIQLTQSPSSVSASVGDRVTITCRASQGISDWLAWYQQKPGKAPKLLIYAASSLQSGVPSRFSGSGSGTDFTLTISSLQPEDFATYYCQQVTSFPPYTFGGGTKVEIK
endpoint.unit: %
% of CD161 binding: 0.09
//
binder: Ab11 (antibody, human IgG1, V domains shown, IgG purified from yeast culture) VH: EVQLLESGGGLVQPGGSLRLSCAASGFTFSQYAMSWVRQAPGKGLEWVSAISAAGGTTYYADSVKGRFTISRDNSKNTLYLQMNSLRAEDTAVYYCAKPLDSSQWADFDLWGRGTLVTVSS VL: DIQLTQSPSSVSASVGDRVTITCRASQGIYSWLAWYQQKPGKAPKLLIYAASSLQSGVPSRFSGSGSGTDFTLTISSLQPEDFATYYCQQASDLPITFGGGTKVEIK
endpoint.unit: %
% of CD161 binding: 0.024

Shifting focus to the binder that follows.
For this binder ( Ab8 (antibody, human IgG1, V domains shown, IgG purified from yeast culture) VH: EVQLLESGGGLVQPGGSLRLSCAASGFTFGTFAMSWVRQAPGKGLEWVSAISGVGGTTYYADSVKGRFTISRDNSKNTLYLQMNSLRAEDTAVYYCAKPLDSSFWADFDLWGRGTLVTVSS VL: DIQLTQSPSSVSASVGDRVTITCRASQTISSWLAWYQQKPGKAPKLLIYAASSLQSGVPSRFSGSGSGTDFTLTISSLQPEDFATYYCQQQSVLPITFGGGTKVEIK ), measured % of CD161 binding is 0.031
